# assayed-target: T1, EsCas13d, nuclease-dead (Eubacterium siraeum, UniProt B0MS50, R295A;H300A;R849A;H854A)
# T1 sequence: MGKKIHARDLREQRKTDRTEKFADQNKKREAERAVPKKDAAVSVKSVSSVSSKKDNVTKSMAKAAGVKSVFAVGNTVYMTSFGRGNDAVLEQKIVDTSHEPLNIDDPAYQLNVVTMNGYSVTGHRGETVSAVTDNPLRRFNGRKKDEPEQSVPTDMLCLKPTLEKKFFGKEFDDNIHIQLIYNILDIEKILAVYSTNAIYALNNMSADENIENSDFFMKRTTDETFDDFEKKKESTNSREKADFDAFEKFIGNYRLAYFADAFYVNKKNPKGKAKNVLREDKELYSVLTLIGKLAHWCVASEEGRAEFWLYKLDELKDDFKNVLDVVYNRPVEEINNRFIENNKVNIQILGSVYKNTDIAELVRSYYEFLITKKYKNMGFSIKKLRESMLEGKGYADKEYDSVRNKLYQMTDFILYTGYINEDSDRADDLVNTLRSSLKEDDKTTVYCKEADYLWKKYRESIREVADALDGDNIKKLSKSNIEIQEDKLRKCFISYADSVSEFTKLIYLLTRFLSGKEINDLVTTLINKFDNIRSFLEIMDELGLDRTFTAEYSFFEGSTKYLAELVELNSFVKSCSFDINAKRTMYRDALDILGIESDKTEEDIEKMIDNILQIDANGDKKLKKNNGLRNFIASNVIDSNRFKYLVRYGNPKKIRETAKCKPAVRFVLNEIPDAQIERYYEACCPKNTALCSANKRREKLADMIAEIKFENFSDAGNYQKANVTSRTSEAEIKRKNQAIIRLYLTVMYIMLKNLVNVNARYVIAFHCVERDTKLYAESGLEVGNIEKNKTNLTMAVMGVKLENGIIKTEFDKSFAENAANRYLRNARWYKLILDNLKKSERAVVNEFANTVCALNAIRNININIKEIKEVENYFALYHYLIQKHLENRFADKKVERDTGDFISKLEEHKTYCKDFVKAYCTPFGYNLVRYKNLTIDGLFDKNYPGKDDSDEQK
# experimental-details: crRNA (strand 1, pre-loaded); Mg2+; 40 mM Tris-HCl pH 7.5, 150 mM NaCl, 6 mM MgCl2, 1 mM DTT, 0.1% Tween-20, 0.2 mg/ml BSA; 25 C; 10 min per concentration, then washed
# measurement-conditions: tags: His6-TwinStrep-SUMO cleaved; N-terminal SNAP kept (SNAP-Surface 488); label: 3' end held by stalled T7 RNA polymerase
Could you please report measured Kd for the items listed next?
Entry rule: numbers only, all in nM.

Data request: Name the recorded Kd of the binder listed here: target 1 del11 (mixed) RNA 1: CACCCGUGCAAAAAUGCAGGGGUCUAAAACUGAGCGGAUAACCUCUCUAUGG RNA 2: GGGAAUGGAUCCACAUCUACGAAUUCGUACCAUAGAGAGGUAUCCGCUCACCGAGAUCGGAAGAGCACACGU
Data returned: 15.9

Data request: Name the recorded Kd of the item target 1 insC 3' of 22,insG 3' of 3 (mixed) RNA 1: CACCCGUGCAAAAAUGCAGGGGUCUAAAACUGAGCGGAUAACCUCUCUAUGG RNA 2: GGGAAUGGAUCCACAUCUACGAAUUCGUACCCAUAGAGAGGUUAUCCGCUGCACCGAGAUCGGAAGAGCACACGU in your answer.
Data returned: 11

Data request: Give the measured Kd for target 2 MT 5'PFS CUG 3'PFS AUG (mixed) RNA 1: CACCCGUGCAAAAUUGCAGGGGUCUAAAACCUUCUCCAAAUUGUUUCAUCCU RNA 2: GGGAAUGGAUCCACAUCUACGAAUUCCUGAGGAUGAAACAAUUUGGAGAAGAUGAGAUCGGAAGAGCACACGU
Data returned: 3.17

Data request: // Input: target 1 MT 5'PFS ACG 3'PFS AUG (mixed) RNA 1: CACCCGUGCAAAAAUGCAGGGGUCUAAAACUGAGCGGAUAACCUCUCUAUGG RNA 2: GGGAAUGGAUCCACAUCUACGAAUUCACGCCAUAGAGAGGUUAUCCGCUCAAUGAGAUCGGAAGAGCACACGU . Output its Kd only.
Data returned: 45
